System: B16
PROCEDURE_TEXT: Cellular uptake in mouse B16 cells relative to unglycosylated TPP(p-DegOH)3
Type: ADME, cell-based
VALUE_KIND: Ratio

SMILES_REPRESENTATION	TEST_TARGET	VALUE_KIND	MEASURED
OC[C@H]1O[C@H](SCCOCCOc2ccc(-c3c4nc(c(-c5ccccc5)c5ccc([nH]5)c(-c5ccc(OCCOCCS[C@H]6O[C@H](CO)[C@@H](O)[C@H](O)[C@@H]6O)cc5)c5ccc([nH]5)c(-c5ccc(OCCOCCS[C@H]6O[C@H](CO)[C@@H](O)[C@H](O)[C@@H]6O)cc5)c5nc3C=C5)C=C4)cc2)[C@@H](O)[C@@H](O)[C@@H]1O	B16	Ratio	1.3
